experiment: in vivo; settings: both, Sprague-Dawley, rat, in vivo, po, 640 mg/kg, t1/2(a) = half-life of absorption
observation type: half-life (min)
Could you give me the number in min? Just the number is fine.

(Q) Return half-life for the following compound: O=c1c(-c2ccc(O)cc2)coc2c([C@@H]3O[C@H](CO)[C@@H](O)[C@H](O)[C@H]3O)c(O)ccc12
(A) 53.4

###

assay: in vivo; conditions: both, Sprague-Dawley, rat, in vivo, po, 640 mg/kg, t1/2(β) = half-life of clearance
observation type: half-life (min)
A number alone suffices; assume min.

(Q) Identify half-life associated with the compound O=c1c(-c2ccc(O)cc2)coc2c([C@@H]3O[C@H](CO)[C@@H](O)[C@H](O)[C@H]3O)c(O)ccc12 [Puerarin]
(A) 60.9
